- Tgt: UniProt:P09871
- Sequence (P09871 438-688 limits assumed): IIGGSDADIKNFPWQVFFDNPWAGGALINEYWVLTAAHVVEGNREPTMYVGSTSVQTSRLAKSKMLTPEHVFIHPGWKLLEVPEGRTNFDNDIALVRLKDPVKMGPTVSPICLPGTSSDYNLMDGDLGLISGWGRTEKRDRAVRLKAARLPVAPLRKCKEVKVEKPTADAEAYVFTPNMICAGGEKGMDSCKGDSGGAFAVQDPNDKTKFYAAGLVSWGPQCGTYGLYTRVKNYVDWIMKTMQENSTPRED
- Sequence (P09871 16-437 partner limits assumed): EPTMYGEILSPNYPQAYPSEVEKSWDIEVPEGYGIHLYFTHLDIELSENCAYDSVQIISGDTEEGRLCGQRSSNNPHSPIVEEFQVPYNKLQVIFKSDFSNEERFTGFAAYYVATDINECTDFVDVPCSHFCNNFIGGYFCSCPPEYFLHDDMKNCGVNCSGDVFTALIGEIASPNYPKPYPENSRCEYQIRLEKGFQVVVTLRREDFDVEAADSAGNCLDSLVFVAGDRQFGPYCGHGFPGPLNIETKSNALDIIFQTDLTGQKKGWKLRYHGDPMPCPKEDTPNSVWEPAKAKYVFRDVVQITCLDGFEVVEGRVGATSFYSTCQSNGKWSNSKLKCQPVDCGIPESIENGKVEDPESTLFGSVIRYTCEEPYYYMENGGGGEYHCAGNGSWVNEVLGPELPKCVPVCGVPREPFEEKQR
- Assay Remarks: Human C1s enzyme assay
- Format: biochemical
- Measurement Setup: Human complement C1s enzyme 1.16 nM, substrate Z-L-Lys-SBzl 100 μM, assay of Example 3; read-out: IC50 (Stars)
pIC50: −log10 of the molar value.
Measure: pIC50

> print(dat)
                   compound.structure.string  result
 1  C[C@@H](NC(=O)[C@@H]1CC2(CN1C(=O)CNC(=O)c1ccc3c(c1)-c1ccccc1S3(=O)=O)OCCO2)c1cc(C(=N)N)cs1  > 7.00
 2  CO[C@@H]1C[C@@H](C(=O)NCc2cc(NC(=O)CNC(=O)c3ccc(Oc4ccc(F)cc4)cc3)cs2)N(C(=O)CNC(=O)c2ccc(Oc3ccc(F)cc3)cc2)C1  < 6.00
 3  C[C@@H](NC(=O)[C@@H]1C[C@](F)(CF)CN1C(=O)CNC(=O)c1ccc2[nH]c3ccccc3c2c1)c1cc(C(=N)N)cs1  > 7.00
 4  C[C@@H](NC(=O)[C@@H]1C[C@](F)(CO)CN1C(=O)CNC(=O)c1ccc2c(c1)-c1ccccc1C2(F)F)c1cc(C(=N)N)cs1  > 7.00
 5  N=C(N)c1csc(CNC(=O)[C@@H]2CC3(CNC3)CN2C(=O)CNC(=O)CCCOc2ccccc2)c1  > 7.00
 6  C[C@@H](NC(=O)[C@@H]1C[C@H](c2ccccn2)CN1C(=O)CNC(=O)c1ccc2c(c1)-c1ccccc1C2(F)F)c1cc(C(=N)N)cs1  > 7.00
 7  COC[C@@]1(F)C[C@@H](C(=O)N[C@H](C)c2cc(C(=N)N)cs2)N(C(=O)CNC(=O)c2cccc(-c3ccc(F)cc3)c2)C1  > 7.00
 8  C[C@@H](NC(=O)[C@@H]1C[C@@H](S(C)(=O)=O)CN1C(=O)CNC(=O)c1ccc2c(c1)Oc1ccccc1S2)c1cc(C(=N)N)cs1  > 7.00
 9  O=C(NCC(=O)N1CC2(C[C@H]1C(=O)NCc1cc(NC3=NCCS3)cs1)OCCO2)c1ccc(Oc2ccc(F)cc2)cc1  < 6.00
10  COC[C@@]1(F)C[C@@H](C(=O)N[C@H](C)c2cc(C(=N)N)cs2)N(C(=O)CNC(=O)c2ccc3cc4ccccc4cc3c2)C1  > 7.00
11  O=C(NCC(=O)N1CC2(C[C@H]1C(=O)NCc1ccn[nH]1)OCCO2)c1ccc(Oc2ccccc2)cc1  < 6.00
12  C[C@@H](NC(=O)[C@@H]1CC2(CN1C(=O)CNC(=O)c1ccc3c(c1)Oc1ccccc1S3)OCCO2)c1cc(C(=N)N)cs1  > 7.00
